Hey, just so you know, these numbers are from patent US12275684B2.

method: Placebo controlled, dose escalation pharmacokinetic study of oral (Z)-Endoxifen capsules (serum endoxifen; incl. accumulation ratios and dose linearity)
Type: in vivo, human
assay context: female, human, serum, po, 2 mg, Day 21; dose 2 mg oral once daily; GeoMean, N 6; read-out: apparent terminal half life (t½) (converted)
Text: An objective of the study was to assess the safety and tolerability of oral (Z)-Endoxifen when administered […] orally as a capsule to healthy female volunteers. A secondary objective was to assess the pharmacokinetics of multiple doses of oral (Z)-Endoxifen in the subjects. Generally, healthy female volunteers aged ≥18 years and ≤65 years were enrolled. 24 participants were enrolled in 3 cohorts and will be administered study drug orally. […]
property name: half-life (h)

>>> df
                                   compound  unit_name  numeric_readout
0  CC/C(=C(\c1ccc(O)cc1)c1ccc(OCCNC)cc1)c1ccccc1 [(Z)-Endoxifen]          h             42.8

----------
method: Placebo controlled, dose escalation pharmacokinetic study of oral (Z)-Endoxifen capsules (serum endoxifen; incl. accumulation ratios and dose linearity)
Assay type: in vivo, human
assay context: female, human, serum, oral, 1 mg; Day 1 hr 1; read-out: Serum concentration, Mean
property name: concentration at 1 h

>>> print(df.to_string())
                                   compound   result
0  CC/C(=C(\c1ccc(O)cc1)c1ccc(OCCNC)cc1)c1ccccc1 [(Z)-Endoxifen]  3.75 nM

----------
method: Placebo controlled, dose escalation pharmacokinetic study of oral (Z)-Endoxifen capsules (serum endoxifen; incl. accumulation ratios and dose linearity)
Type: in vivo, human
assay context: female, human, serum, po, 2 mg/day, Day 1; 2 mg/day oral (n = 6); read-out: Cmax, Arithmetic Mean
property name: Cmax (ng/mL)

In [3]: df
Out[3]:
                                   compound  numeric_readout
0  CC/C(=C(\c1ccc(O)cc1)c1ccc(OCCNC)cc1)c1ccccc1 [(Z)-Endoxifen]             17.7

----------
method: Placebo controlled, dose escalation pharmacokinetic study of oral (Z)-Endoxifen capsules (serum endoxifen; incl. accumulation ratios and dose linearity)
Format: in vivo, human
assay context: female, human, serum, po, 4 mg, Day 21; dose 4 mg oral once daily; Median, N 6; read-out: Cmax
Text: An objective of the study was to assess the safety and tolerability of oral (Z)-Endoxifen when administered […] orally as a capsule to healthy female volunteers. A secondary objective was to assess the pharmacokinetics of multiple doses of oral (Z)-Endoxifen in the subjects. Generally, healthy female volunteers aged ≥18 years and ≤65 years were enrolled. 24 participants were enrolled in 3 cohorts and will be administered study drug orally. […]
property name: Cmax (ng/mL)

                                   compound  property_name  unit_name  numeric_readout
0  CC/C(=C(\c1ccc(O)cc1)c1ccc(OCCNC)cc1)c1ccccc1 [(Z)-Endoxifen]           Cmax      ng/mL              131

----------
method: Placebo controlled, dose escalation pharmacokinetic study of oral (Z)-Endoxifen capsules (serum endoxifen; incl. accumulation ratios and dose linearity)
Format: in vivo, human
assay context: female, human, serum, oral, 1 mg, Day 1; 1 mg; N = 5; read-out: Vz/F, Median
property name: Vd/F

In [3]: df
Out[3]:
                                   compound  result
0  CC/C(=C(\c1ccc(O)cc1)c1ccc(OCCNC)cc1)c1ccccc1 [(Z)-Endoxifen]   108 L

----------
method: Placebo controlled, dose escalation pharmacokinetic study of oral (Z)-Endoxifen capsules (serum endoxifen; incl. accumulation ratios and dose linearity)
Assay type: in vivo, human
assay context: female, human, serum, oral, 2 mg, Day 1; 2 mg; N 6; read-out: AUC0-inf, GeoMean
property name: AUC(0-inf) (ng·h/mL)

In [3]: df
Out[3]:
                                   molecule  property_name  unit_name  numeric_readout
0  CC/C(=C(\c1ccc(O)cc1)c1ccc(OCCNC)cc1)c1ccccc1 [(Z)-Endoxifen]     AUC(0-inf)    ng·h/mL             1080

----------
method: Placebo controlled, dose escalation pharmacokinetic study of oral (Z)-Endoxifen capsules (serum endoxifen; incl. accumulation ratios and dose linearity)
Type: in vivo, human
assay context: female, human, serum, po, 1 mg/day, Day 21; 1 mg/day oral (n = 5); read-out: AUC24 hr, Arithmetic Mean
property name: AUC(0-t) (ng·h/mL)

>>> print(df.to_string())
                                   compound  numeric_readout
0  CC/C(=C(\c1ccc(O)cc1)c1ccc(OCCNC)cc1)c1ccccc1 [(Z)-Endoxifen]              458

----------
method: Placebo controlled, dose escalation pharmacokinetic study of oral (Z)-Endoxifen capsules (serum endoxifen; incl. accumulation ratios and dose linearity)
Assay type: in vivo, human
assay context: female, human, serum, oral, 2 mg, Day 1; 2 mg; N 6; read-out: AUCTlast, GeoMean
property name: AUC(0-t)

>>> df
                                   compound  property_name       result
0  CC/C(=C(\c1ccc(O)cc1)c1ccc(OCCNC)cc1)c1ccccc1 [(Z)-Endoxifen]       AUC(0-t)  862 ng·h/mL

----------
method: Placebo controlled, dose escalation pharmacokinetic study of oral (Z)-Endoxifen capsules (serum endoxifen; incl. accumulation ratios and dose linearity)
Type: in vivo, human
assay context: female, human, serum, po, 4 mg, Day 1; dose 4 mg oral; Mean, N 6; read-out: AUC24hr
property name: AUC(0-t) (ng·h/mL)

>>> print(df.to_string())
                                   molecule  property_name  numeric_readout
0  CC/C(=C(\c1ccc(O)cc1)c1ccc(OCCNC)cc1)c1ccccc1 [(Z)-Endoxifen]       AUC(0-t)              587

----------
method: Placebo controlled, dose escalation pharmacokinetic study of oral (Z)-Endoxifen capsules (serum endoxifen; incl. accumulation ratios and dose linearity)
Type: in vivo, human
assay context: female, human, serum, oral, 1 mg; Day 1 hr 12; read-out: Serum concentration, Max
property name: concentration at 12 h (nM)

                                   molecule          property_name  numeric_readout
0  CC/C(=C(\c1ccc(O)cc1)c1ccc(OCCNC)cc1)c1ccccc1 [(Z)-Endoxifen]  concentration at 12 h             21.4

----------
method: Placebo controlled, dose escalation pharmacokinetic study of oral (Z)-Endoxifen capsules (serum endoxifen; incl. accumulation ratios and dose linearity)
Format: in vivo, human
assay context: female, human, serum, oral, 1 mg; Day 1 hr 1; read-out: Serum concentration, GeoMean
property name: concentration at 1 h (nM)

>>> df
                                   compound  numeric_readout
0  CC/C(=C(\c1ccc(O)cc1)c1ccc(OCCNC)cc1)c1ccccc1 [(Z)-Endoxifen]             3.33

----------
method: Placebo controlled, dose escalation pharmacokinetic study of oral (Z)-Endoxifen capsules (serum endoxifen; incl. accumulation ratios and dose linearity)
Format: in vivo, human
assay context: female, human, serum, oral, 1 mg; Day 1 hr 10; read-out: Serum concentration, Median
property name: concentration at 10 h (nM)

                                   molecule          property_name  numeric_readout
0  CC/C(=C(\c1ccc(O)cc1)c1ccc(OCCNC)cc1)c1ccccc1 [(Z)-Endoxifen]  concentration at 10 h             21.4

----------
method: Placebo controlled, dose escalation pharmacokinetic study of oral (Z)-Endoxifen capsules (serum endoxifen; incl. accumulation ratios and dose linearity)
Format: in vivo, human
assay context: female, human, serum, oral, 1 mg, Day 21; 1 mg; N = 5; read-out: Vz/F, GeoMean
property name: Vd/F (L)

>>> print(df.to_string())
                                   compound  numeric_readout
0  CC/C(=C(\c1ccc(O)cc1)c1ccc(OCCNC)cc1)c1ccccc1 [(Z)-Endoxifen]              173

----------
method: Placebo controlled, dose escalation pharmacokinetic study of oral (Z)-Endoxifen capsules (serum endoxifen; incl. accumulation ratios and dose linearity)
Type: in vivo, human
assay context: female, human, serum, po, 4 mg, Day 1; dose 4 mg oral; Median, N 6; read-out: volume of distribution (Vd/F)
property name: Vd/F (L)

>>> df
                                   molecule  numeric_readout
0  CC/C(=C(\c1ccc(O)cc1)c1ccc(OCCNC)cc1)c1ccccc1 [(Z)-Endoxifen]              131

----------
method: Placebo controlled, dose escalation pharmacokinetic study of oral (Z)-Endoxifen capsules (serum endoxifen; incl. accumulation ratios and dose linearity)
Assay type: in vivo, human
assay context: female, human, serum, oral, 1 mg; Day 1 hr 10; read-out: Serum concentration, Min
property name: concentration at 10 h (nM)

                                   compound          property_name  unit_name  numeric_readout
0  CC/C(=C(\c1ccc(O)cc1)c1ccc(OCCNC)cc1)c1ccccc1 [(Z)-Endoxifen]  concentration at 10 h         nM             13.4
